test-method-notes: NCI Yeast Anticancer Drug Screen. Data for the sgs1 mgt1 strain (AID 161);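 further: 0% = growth of cultures given vehicle only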
details: S. cerevisiae sgs1 mgt1 strain, at 50.0 µM, active compounds read high
This is part of a sample that, as a whole, favours compounds with a hit. Of some 79,000 tested, about 15% had one in any assay. Where a SMILES comes first, the peptide text is derived from it. [ ]: non-standard residue; d: D form. The star is where a group is joined. ξ: configuration not given here. Tos = Cc1ccc(S(=O)(=O)*)cc1; ξY = NC(Cc1ccc(O)cc1)C(=O)O
# maps each entry to its growth inhibition

compound	growth inhibition [%]
O=C(N=Nc1c(O)[nH]c2ccccc12)c1ccncc1	-9.25
O=C1NC(=O)C(c2ccco2)N1 (configuration not stated)	-12.2
O=C1c2ccccc2-c2nc3cc4ccccc4cc3nc21	22.5
O=C(O)c1nnn(Cc2ccccc2)c1C(=O)O	-17.6
CC(C)(C)c1ccc(OCCOCCOc2ccc(C(C)(C)C)cc2S(N)(=O)=O)c(S(N)(=O)=O)c1	-19.8
CCCCCCCCCC[C@@H](OC(C)=O)[C@@H]1CC[C@@H]([C@@H]2CC[C@@H]([C@@H](O)CC#C/C=C/CCCCCCC[C@@]3(Sc4ccccc4)C[C@H](C)OC3=O)O2)O1	-16.1
C=CCCCCCCCCC(=O)NCc1nc2ccccc2[nH]1	25.9
COc1ccc(/C=C2/CSCC3=C2NC(=S)NC3c2ccc(OC)c(OC)c2OC)c(OC)c1OC (configuration not stated)	37
COc1cc(C2C3=C(COC3=O)OC(C)(C)Oc3cc4c(cc32)OCO4)cc(OC)c1O (configuration not stated)	-7.3
CS(=O)(=O)c1c(N)c2nc(Cl)cn2c2nc3ccccc3nc12	-10.3
COc1ccc(-c2c(C#N)c(S)n(C3OC(COC(C)=O)C(OC(C)=O)C(OC(C)=O)C3OC(C)=O)c(=O)c2C#N)cc1 (configuration not stated)	-6.3
COC1(OC)CC2C(=O)N(Cc3ccccc3)C1C(S(=O)(=O)c1ccccc1)C2C(C)S(=O)(=O)c1ccccc1 (configuration not stated)	-24
CCCCCCCCNC=O	9.45
COc1ccc(C2OC3=Nc4cc(C)c(C)cc4NC3C2=O)cc1OC (configuration not stated)	-6.15
O=C(NC(=O)c1ccc([N+](=O)[O-])cc1)Nc1ccccc1	-1.4
O=C1CC(c2ccccc2)NCN1 (configuration not stated)	7.1
O=C1NCCS(=O)(=O)N2CCC[C@@H]12	5.1
CCO/C(C)=N/n1c(C)nc2[nH]ncc2c1=O	5.55
Brc1cc(Br)cc(-c2nnc(-c3cccc4ccccc34)o2)c1	0.25
[B-]([C+]1CCCCC1)N1C=CC=CC1	15.7
CCOC(=O)c1c(NCc2ccccc2)n(-c2ccccc2)c(=S)n(-c2ccccc2)c1=O	0.6
Cc1nc(=S)c2[nH]c(=S)[nH]c2[nH]1	-3.8
COc1cc2c(cc1C(C)c1ccc(OC(C)C)cc1)OCO2 (configuration not stated)	-3.95
Cc1cc(=O)oc2cc(OCc3ccccc3)cc(O)c12	21.8
O=C1Oc2ccccc2CC1C(=O)c1ccc(Cl)cc1 (configuration not stated)	8.95
CC1OC(OC2C(Oc3cc(O)c4c(c3)O[C@H](c3ccc(O)cc3)CC4=O)OC(CO)C(O)C2O)C(O)C(O)C1O (some centres not stated)	-5.65
CC(=O)Nc1ccc(/C=N/NC(=O)COCC(=O)N/N=C/c2ccc(NC(C)=O)cc2)cc1	0.15
CCN(CC)CCCNc1[nH]ncc2c(C)c3nc4ccccc4c3cc12	14.7
O=C(COc1ccc(Cl)c(Cl)c1)NCc1ccc([N+](=O)[O-])cc1	20.9
Cc1cc(C)c2c(c1)CSCc1cc(C)cc(C)c1-2	19.1
COC(=O)C(Cc1ccc(O)cc1)NC(=O)CNS(=O)(=O)c1ccc(C)cc1 (stereo not drawn) (Tos-Gly-[ξY]-OMe)	19.9
CCOC(=O)CSc1nc(N)c2c(-c3ccccc3)c3c(nc2n1)CCCC3	10.8
CSc1cccc(N=C(C#N)C2=C(O)c3ccccc3C2=O)c1	9.65
C=CC1C(C[C@@H]2c3cc(O)c(O)cc3CCN2C(C)=O)C(C(=O)OC)=CO[C@H]1OC1OC(CO)C(O)C(O)C1O (some centres not stated)	-32.8
O=C1NC(=O)N2CC(CI)OC2C1c1ccccc1 (configuration not stated)	10.2
Cc1c(C#N)c(N)[nH]c(=S)c1C#N	4.95
O=C(Nc1ccc(O)cc1)c1ccccc1O	14.3
CCOP(=O)(OCC)c1cc(NC(=O)c2cc(NC(=O)c3cc(NC(=O)Nc4cc(C(=O)Nc5cc(C(=O)Nc6cc(P(=O)(OCC)OCC)c7cccc(P(=O)(OCC)OCC)c7c6)n(C)c5)n(C)c4)cn3C)cn2C)cc2c(P(=O)(OCC)OCC)cccc12	-16.1
CSc1cc(C)c(O)c(CO)c1	18.2
Cc1cnn(-c2ccccc2)[n+]1[O-]	9.5
CC(NC(=O)CNC(=O)CNC(=O)OCc1ccccc1)C(=O)OCc1ccccc1 (configuration not stated)	-3.65
COc1ccc(/C=C2\Cc3ccccc3C2=O)cc1OC	-9.85

---

Measured growth inhibition, listed per entry for reference.
test-method-notes: NCI Yeast Anticancer Drug Screen. Data for the cln2 rad14 strain (AID 165);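 further: 0% = growth equal to vehicle treated cultures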
details: S. cerevisiae cln2 rad14 strain, at 50.0 µM, active compounds read high
About 79,000 compounds went through this panel and 15% of them were active in at least one assay; those are over-represented in the sample as a whole. Calls of active or inactive are those of the source. No stated cut-off is given here; in the data, active means growth inhibition above about 70%; inactive means the rest.
quantity: growth inhibition

>>> print(df.to_string())
                                    molecule     recorded_value
 0  N#CCCC1(c2ccccc2)CCC/C(=C/c2ccccc2)C1=O (configuration not stated)    7.1% (inactive)
 1      CC(=O)c1ccc(OCc2ccccc2)cc1OCc1ccccc1   11.7% (inactive)
 2  CC(O)COC(C)COC(C)c1ccccc1 (configuration not stated)  -2.35% (inactive)
 3  C=C(C)C12CC3CC(/C(=N/O)C(C1)/C3=N\O)[C@@]2(C)O (some centres not stated)   -8.2% (inactive)
 4  COc1cccc(C2c3cc4c(cc3OC(C)(N3CCCC3)C2C)OCO4)c1OC (configuration not stated)  -4.25% (inactive)
 5  COC(=O)C(C#N)C1NC(=O)c2ccccc21 (configuration not stated)   1.45% (inactive)
 6  Cc1cc(Cl)ccc1N=C1NC(=O)C(CC(=O)Nc2ccc(Cl)cc2Cl)S1 (configuration not stated)  -46.4% (inactive)
 7                       OCCCOc1ccc2ccccc2c1   3.95% (inactive)
 8                         NC(=O)/N=N/C(N)=O   15.2% (inactive)
 9            c1ccc2c(c1)CCN2CCN1CCc2ccccc21   -7.6% (inactive)
10     C=CCN1C(=O)C(c2ccccc2)(c2ccccc2)NC1=S  -20.1% (inactive)
11  c1cc2c3c(cccc3c1)N1C(=N2)Sc2nc3ccccc3nc21   -5.2% (inactive)

---

test-method-notes: NCI Yeast Anticancer Drug Screen. Data for the bub3 strain (AID 167)
details: S. cerevisiae bub3 mutant strain, at 50.0 µM
About 79,000 compounds went through this panel and 15% of them were active in at least one assay; those are over-represented in the sample as a whole. Active and inactive are the calls of the source. No stated cut-off is given here; in the data, active means growth inhibition above about 70%; inactive means the rest.
Outcome codes: true (1) (active), false (0) (inactive)

compound	label-value
CCOc1ccc(C=O)cc1OCC	false (0)
O=C(O)C(O)C(O)C(O)C(O)C(=O)O.[Cu+2] (stereo not given)	false (0)
COc1ccc(C(=O)c2ccccc2C(=O)c2ccc(OC)cc2)cc1	false (0)
c1ccc(C2NC(c3ccccc3)c3c(ccc4ccccc34)O2)cc1 (stereo not given)	false (0)
COC(=O)C(C(C)C(C)[N+](=O)[O-])=P(c1ccccc1)(c1ccccc1)c1ccccc1 (stereo not given)	false (0)
C#CCC(C)(C)C(N)=O	false (0)
O=C(ON(Cc1ccccc1)Cc1ccccc1)c1ccccc1	false (0)
CCCCCCCCCCCCCCCCCCCCCCOC(=O)CCC(=O)OCCCCCCCCCCCCCCCCCCCCCC	false (0)
O=C1OC(c2cccc(Cl)c2)=N/C1=C\c1ccc(Cl)cc1	false (0)
N#CCC(=O)N1CCCCCCC1	false (0)
Nc1ccc2[nH]cc(CCC(=O)O)c2c1	false (0)
CC1=CC(=O)[C@@H]2C[C@H]1C2(C)C	false (0)
CCC1=CC(C=O)N(C(C)=O)c2ccccc21 (stereo not given)	false (0)
COC(=O)C1OC1C(=O)OC (stereo not given)	false (0)
O=c1[nH]n(CCc2ccccc2CCl)c2ccc([N+](=O)[O-])cc12	false (0)
c1cncc(C2c3[nH]c4ccccc4c3CCN2CCN2CCCCC2)c1 (stereo not given)	false (0)
CC(C)(C)C(=O)N/N=C\c1ccc([N+](=O)[O-])s1	false (0)
COc1ccc(Cc2nc3c([nH]2)c(=O)n(C)c(=O)n3C)cc1	false (0)
C=C(C)COc1ccc(C)cc1Br	false (0)
Cc1ccc(C)c(I)c1	false (0)
CCCCCCCCCCCCCCCCCCCOc1ccc(OCCCCCCCC)cc1	false (0)
COc1ccc2c3c([nH]c2c1[N+](=O)[O-])C(C)N(C)CC3 (stereo not given)	false (0)
CC(=O)N(C)c1ccccc1O	false (0)
CC(c1ccccc1)C(C)(C)O (stereo not given)	false (0)
CCCCN(CCCC)CC(O)c1cccc2c1cc(Cl)c1ccccc12 (stereo not given)	true (1)
CC(=O)Oc1cc(O)oc(=O)c1	false (0)
CC1(C)OC(=O)c2ccccc21	false (0)
C[n+]1c(-c2ccc(Cl)c(Cl)c2)c2cc(N)ccc2c2ccccc21	false (0)
COc1ccc2ccc3c4c(c(=O)[nH]c3c2n1)CCC4	false (0)
CCN(CC)CC1CCCCCCCCCCC1=O (stereo not given)	false (0)
OCc1cn(C(c2ccccc2)(c2ccccc2)c2ccccc2)cn1	false (0)
CCCCCCCCCCCCCCCCOc1cccc(/C(=N/NS(C)(=O)=O)N2CCCCC2)c1	false (0)
CC(=O)OC1C(=C(Br)Br)C(COC(=O)c2ccccc2)OC1n1cnc2c(NC(=O)c3ccccc3)ncnc21 (stereo not given)	false (0)
COC(=O)C1OC(O[C@H]2CC[C@]3(C)[C@H]4CC=C5[C@@H]6CC(C)(C)CC[C@]6(C(=O)OC)CC[C@@]5(C)[C@]4(C)CC[C@H]3C2(C)C)C(O)C(O)C1O (stereo not given in full)	false (0)
CCCCc1c(OCC)cc2n(CC)c3ccccc3n2c1=O	false (0)
COCCCNC(=S)N/N=C/c1ccccc1O	false (0)
O=C1C(SCCO)=C(SCCO)C(=O)c2[nH]cnc21	false (0)
CNc1nc(Cl)cc2nc(Cl)cn12	false (0)
CCCCCCCCCCCCCC1CCC(CC)N1 (stereo not given)	true (1)
CCOC(=O)C(=O)c1c(C)[nH]c(C)c1C(=O)OCC	false (0)
NC(=O)CCn1ccc2ccccc21	false (0)
C/C=C/C=C/C(=O)OCC	false (0)
CCN(CC)CC1CCCCN1CC(=O)N1c2ccccc2NC(=O)c2ccccc21 (stereo not given)	false (0)
OC1CCCSc2ccccc21 (stereo not given)	false (0)
COc1ccc(OC)c(C#N)c1C#N (tested in a mixture with another compound)	false (0)
CCCOc1ccc(C2=C(c3ccccc3)C(=O)C(c3ccccc3)=C2c2ccccc2)cc1	false (0)
O=C(O)c1cc(=O)c2cc(Cc3ccccc3)ccc2[nH]1	false (0)
CC(C)(C)NC(=O)NCc1ccc(Cl)c(Cl)c1	false (0)
NNc1nc(N2CCOCC2)c2[nH]cnc2n1	false (0)
Nc1n[nH]c(=S)n1Cc1ccccc1	false (0)
